- Tested target: Bcl-2-related protein A1 (Homo sapiens)
- Method summary: Inhibition of Bfl-1 (unknown origin) incubated for 30 min by fluorescence polarization assay
Measurement name: IC50 (nM)
// return numeric value only (unit: nM, not printed)

Q. Lab note: record IC50 of COc1ccc(C(c2c(-c3ccccc3)n(O)c3ccccc23)N2CCN(C)CC2)cc1 (stereo unspecified) tested on Bcl-2-related protein A1 (Homo sapiens).
A. 800

---

- Tested target: Bcl-2-related protein A1 (Homo sapiens, UniProt Q16548)
- Sequence (Q16548 whole entry): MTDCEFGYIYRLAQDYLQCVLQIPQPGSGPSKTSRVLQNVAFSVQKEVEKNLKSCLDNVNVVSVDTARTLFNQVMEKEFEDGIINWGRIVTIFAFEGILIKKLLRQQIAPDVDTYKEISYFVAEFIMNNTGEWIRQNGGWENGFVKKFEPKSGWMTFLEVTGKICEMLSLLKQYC
- Method summary: Inhibition of Bfl-1 (unknown origin) assessed as inhibition constant
Measurement name: pKi
Conceptually, pKi converts a concentration in mol/L into minus its log10.

Q. Give the measured pKi for O=C(O)CSc1cc(NS(=O)(=O)c2ccc(Br)cc2)c2ccccc2c1O
A. 5.50
